# system-tested: UniProt P35372
# Sequence (P35372 whole entry): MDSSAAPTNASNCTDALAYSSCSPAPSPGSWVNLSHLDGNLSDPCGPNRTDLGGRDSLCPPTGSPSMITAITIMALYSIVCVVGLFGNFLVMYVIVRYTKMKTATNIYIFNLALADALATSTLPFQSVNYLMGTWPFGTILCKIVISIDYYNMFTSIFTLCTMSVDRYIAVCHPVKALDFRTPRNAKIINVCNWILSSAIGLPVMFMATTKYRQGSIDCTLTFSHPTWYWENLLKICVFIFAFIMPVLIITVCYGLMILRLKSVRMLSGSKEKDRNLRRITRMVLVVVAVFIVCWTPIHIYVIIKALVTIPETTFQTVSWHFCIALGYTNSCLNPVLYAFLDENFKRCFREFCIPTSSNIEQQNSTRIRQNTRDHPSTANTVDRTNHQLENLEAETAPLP
# test: β-arrestin recruitment at μOR with GRK2 co-expression
# Format: cell-based
assay-readout: Arrestin + GRK2 Emax % DAMGO

- molecule: "CN(CC1CC1)[C@H](CNC(=O)NCCc1ccccc1)Cc1ccc(O)cc1"
  assay-readout: "Arrestin + GRK2 Emax % DAMGO"
  readout-value: "No Activity"
- molecule: "CN(C)[C@H](CNC(=O)NC1Cc2ccccc2C1)Cc1ccc(O)cc1 [DD 57L]"
  assay-readout: "Arrestin + GRK2 Emax % DAMGO"
  readout-value: "No Activity"
- molecule: "CN(CCc1ccccc1)C(=O)N(C)C[C@H](Cc1ccc(O)cc1)N(C)C"
  assay-readout: "Arrestin + GRK2 Emax % DAMGO"
  readout-value: "No Activity"
- molecule: "C[C@@H](Cc1ccsc1)NC(=O)NC[C@H](Cc1cccc(O)c1)N(C)C [DD 47LS]"
  assay-readout: "Arrestin + GRK2 Emax % DAMGO"
  readout-value: "70 % DAMGO"
